System: HCT116 cells
Assay: Measurement of effect of inhibiting cancer cell proliferation (MTT)
Format: cell-based
Settings: Homo sapiens, HCT-116, 48 hours
Structures can show the parent of a compound that is named as a salt.
GI50 values for the molecules below.
Just the number in µM, nothing appended.

Consider the worked cases shown below.
[[record]]
molecule = "Cl.N=C(NCc1ccc(Cl)c(C(F)(F)F)c1)NC(=N)N1CCCCC1 [Example 45, hydrochloride]"
result_unit = "µM"
meas_value = 8.2

[[record]]
molecule = "Cl.N=C(NCc1ccc(OC(F)(F)F)c(F)c1)NC(=N)N1CCCCC1 [Example 49, hydrochloride]"
result_unit = "µM"
meas_value = 9.2

[[record]]
molecule = "Cl.N=C(NCc1ccc(C(F)(F)F)c(Cl)c1)NC(=N)N1CCCCC1 [Example 47, hydrochloride]"
result_unit = "µM"
meas_value = 7.4

[[record]]
molecule = "Cl.N=C(NCc1ccc(OC(F)(F)F)cc1)NC(=N)N1CCC1 [Example 40, hydrochloride]"
result_unit = "µM"
meas_value = 36.9

[[record]]
molecule = "CN(C)C(=N)N=C(N)N [Metformin hydrochloride, reference compound]"
result_unit = "µM"
meas_value = 2850


Reported GI50 of Cl.N=C(NCc1ccc(Cl)cc1)NC(=N)N1CCCC1 [Example 31, hydrochloride] : 17.6

// recorded GI50 for Cl.N=C(NCc1ccc(Br)cc1)NC(=N)N1CCCCC1 [Example 35, hydrochloride] : 23.2

The value of GI50 measured for the molecule Cl.N=C(NC(=N)N1CCCCCC1)NC1CCCCCC1 [Example 19, hydrochloride] turned out to be 35.7

Lab book: GI50 of Cl.N=C(NCCc1ccccc1)NC(=N)N1CCCCCC1 [Example 59, hydrochloride] noted as 21.9

Measured GI50, Cl.N=C(NCc1cccc2ccccc12)NC(=N)N1CCCCC1 [Example 25, hydrochloride] : 28

Lab note: Cl.N=C(NCc1ccc(OC(F)(F)F)cc1)NC(=N)N1CCCC1 [Example 41, hydrochloride] gave GI50 of 25.6

GI50 in this record for Cl.N=C(NCc1cccc(C(F)(F)F)c1)NC(=N)N1CCCCC1 [Example 7, hydrochloride] : 17.2

GI50 measured on Cl.N=C(NCc1ccc(C(F)(F)F)cc1)NC(=N)N1CCCCC1 [Example 39, hydrochloride] = 16.2

* * *

Each entry below carries its reported melting point.

Previously resolved entries follow.
[[record]]
structure_smiles_string = "Cl.N=C(NCCc1cccs1)NC(=N)N1CCCCC1"
meas_value = "176 to 178 °C"

[[record]]
structure_smiles_string = "Cl.N=C(NC(=N)N1CCCCC1)NC1CCCCC1"
meas_value = "214 to 215 °C"

[[record]]
structure_smiles_string = "Cl.N=C(NCc1ccco1)NC(=N)N1CCCC1"
meas_value = "242 to 243 °C"

[[record]]
structure_smiles_string = "Cl.N=C(NC(=N)N1CCCCCC1)NC1CCCCCC1"
meas_value = "237 to 238 °C"

[[record]]
structure_smiles_string = "Cl.N=C(NC(=N)N1CCCC1)NC1CCCC1"
meas_value = "200 to 201 °C"


For record Cl.N=C(NCc1ccc(F)c(OC(F)(F)F)c1)NC(=N)N1CCCCC1 the listed melting point is 233 to 235 °C

Per the record, Cl.N=C(NCc1cccc(C(F)(F)F)c1)NC(=N)N1CCOCC1 has melting point of 211 to 212 °C

The reported melting point of the compound Cl.N=C(NCCc1ccccc1)NC(=N)N1CCCCCC1 was 211 to 213 °C

Lab note: measured melting point of Cl.N=C(NCc1ccc(F)cc1)NC(=N)N1CCCCC1 was 250 to 251 °C

// sample Cl.N=C(NCc1ccc(OC(F)(F)F)cc1)NC(=N)N1CCC1 , its melting point was 182 to 184 °C

These data points were gathered from patent US9321742B2.
